TEST: Analytical size exclusion chromatography (percent monomer)
Type: physicochemical
TEST CONDITIONS: NEM-conjugated cysteine variants; SEC, Abs280 monomer region 5.5-6 minutes vs oligomer region 4-5.3 minutes
molecules and their reported Percent monomer
OUTCOME MEASURE: Percent monomer (%)

INSERT INTO measurements (molecule, reported_result) VALUES
  ('G51C (conjugate, left off: small tags and cut ends) LPAPKNLVVSEVTEDSARLSWDDPWAFYESFLIQYQESEKVGEAIVLTVPCSERSYDLTGLKPGTEYTVSIYGVHNVYKDTNMRGLPLSAIFTT', 96),
  ('S89C: cysteine variant of P54AR4-83v2 (SEQ ID NOS: 213 and 251); NEM and VC-MMAF conjugates (conjugate, NEM or vcMMAF conjugate; EGFR binding FN3 domain, NEM and VC-MMAF conjugates) MLPAPKNLVVSEVTEDSARLSWDDPWAFYESFLIQYQESEKVGEAIVLTVPGSERSYDLTGLKPGTEYTVSIYGVHNVYKDTNMRGLPLCAIFTT', 96),
  ('F31C (conjugate, left off: small tags and cut ends) LPAPKNLVVSEVTEDSARLSWDDPWAFYESCLIQYQESEKVGEAIVLTVPGSERSYDLTGLKPGTEYTVSIYGVHNVYKDTNMRGLPLSAIFTT', 57);
